- Test system: wild-type bacterial ribosome
- Procedure Summary: Cell-free translation assay, wild-type bacterial ribosome
- Type: biochemical
- Setup Conditions: in vitro translation inhibition
Result Type: IC50 wt (µg/mL)
Number only, in µg/mL; omit the unit.

Here are 6 compounds together with their reported answers.
compound="NC[C@@H]1O[C@H](O[C@H]2[C@@H](O)[C@H](O[C@@H]3[C@@H](O)[C@H](N)C[C@H](N)[C@H]3O[C@H]3O[C@H](CO)[C@@H](O)[C@H](O)[C@H]3N)O[C@@H]2CO)[C@H](N)[C@@H](O)[C@@H]1O [Compound 1, paromomycin, reference compound]" result_type="IC50 wt" result_value=0.02
compound="CCOC1C(CO)OC(OC2C(N)CC(N)C(O)C2OC2OC(CO)C(OC3OC(CN)C(O)C(O)C3N)C2O)C(N)C1O (stereo not shown)" result_type="IC50 wt" result_value=0.08
compound="CCSC1C(CO)OC(OC2C(N)CC(N)C(O)C2OC2OC(CO)C(OC3OC(CN)C(O)C(O)C3N)C2O)C(N)C1O (stereo not shown)" result_type="IC50 wt" result_value=0.04
compound="CNC(C)C1CCC(N)C(OC2C(N)CC(N)C(OC3OCC(C)(O)C(NC)C3O)C2O)O1 (stereo not shown)" result_type="IC50 wt" result_value=0.02
compound=NC[C@H]1O[C@H](O[C@H]2[C@H](O)[C@@H](O[C@H]3O[C@H](CO)[C@@H](O)[C@H](N)[C@H]3O)[C@H](N)C[C@@H]2N)[C@H](N)C[C@@H]1O result_type="IC50 wt" result_value=0.02
compound="NCC1OC(OC2C(CO)OC(OC3C(O)C(N)CC(N)C3OC3OC(CO)C(CC(O)CO)C(O)C3N)C2O)C(N)C(O)C1O (stereo not shown)" result_type="IC50 wt" result_value=0.10

// fetch IC50 wt for CCC1C(CO)OC(OC2C(N)CC(N)C(O)C2OC2OC(CO)C(OC3OC(CN)C(O)C(O)C3N)C2O)C(N)C1O (stereo not shown) ; system: wild-type bacterial ribosome
0.06

###

- System: E. coli
- Procedure Summary: Antibacterial activity against reference strains: E. coli
- Setup Conditions: Escherichia coli, read-out: Antibacterial activity (MIC) E. coli AG001
Result Type: MIC

Illustrative cases are given below, each with its answer.
molecule="CNC(C)C1CCC(N)C(OC2C(N)CC(N)C(OC3OCC(C)(O)C(NC)C3O)C2O)O1 (stereo not drawn)" result_type=MIC result_value="1 to 2 µg/mL"
molecule=NC[C@H]1O[C@H](O[C@H]2[C@H](O)[C@@H](O[C@H]3O[C@H](CO)[C@@H](O)[C@H](N)[C@H]3O)[C@H](N)C[C@@H]2N)[C@H](N)C[C@@H]1O result_type=MIC result_value="1 to 2 µg/mL"

Consider the record given below.
Provide one value: measured MIC of NC[C@@H]1O[C@H](O[C@H]2[C@@H](O)[C@H](O[C@@H]3[C@@H](O)[C@H](N)C[C@H](N)[C@H]3O[C@H]3O[C@H](CO)[C@@H](O)[C@H](O)[C@H]3N)O[C@@H]2CO)[C@H](N)[C@@H](O)[C@@H]1O [Compound 1, paromomycin, reference compound]
2 to 4 µg/mL
